# assay_method_text: Solubility at pH 7.4
# Type: physicochemical
measure: Sol @ pH 7.4 (ug/mL)
State the answer as a number, implicitly in ug/mL.

O=C1NCc2cc(-n3c(=O)ccc4cnc5ccc(-c6ccc(F)cc6)cc5c43)ccc21 :: 0.6

Need Sol @ pH 7.4 (ug/mL) of CN(C)Cc1ccc(-c2ccc3ncc4ccc(=O)n(-c5ccc6c(c5)CCNC6=O)c4c3c2)cc1 , thanks.
31.01

----------
Microsomal Stability (rat) T1/2 by entry:
# assay_method_text: Microsomal stability (rat)
# Type: in vitro ADME
# assay_conditions: rat microsomes

Consider the following illustrative entries.
O=C(NC1CCNC1)c1ccc(-n2c(=O)ccc3cnc4ccc(-c5ccc(Cl)cc5)cc4c32)cc1 (stereo not shown) :: >30 min
N#Cc1cccc(-c2ccc3ncc4ccc(=O)n(-c5ccc(C(=O)N6CCOCC6)cc5)c4c3c2)c1 :: 19.7 min
CS(=O)(=O)c1cccc(-n2c(=O)ccc3cnc4ccc(-c5ccc(Cl)cc5)cc4c32)c1 :: >30.00 min
CCc1ccc(-c2ccc3ncc4ccc(=O)n(-c5ccc(C(=O)N6CCOCC6)cc5)c4c3c2)cc1 :: 8.8 min
CN(C)Cc1cccc(-c2ccc3ncc4ccc(=O)n(-c5ccc(S(C)(=O)=O)cc5)c4c3c2)c1 :: >30.00 min
Cn1c(=O)n(-c2cccc(C#N)c2)c2c3cc(-c4ccc(Cl)cc4)ccc3ncc21 :: >30.0 min

Would you kindly share the measured Microsomal Stability (rat) T1/2 for Cc1cc(C(=O)NCCCN(C)C)ccc1-n1c(=O)ccc2cnc3ccc(-c4ccc(Cl)cc4)cc3c21 ?
19.9 min

----------
# assay_method_text: PAMPA permeability
# Assay type: in vitro ADME
measure: PAMPA Permeability (nm/s)
The reply should be a number in nm/s, with the unit left off.

Solved entries (count: 3):
Cc1cc(C(=O)NCCCN2CCC(C)CC2)ccc1-n1c(=O)ccc2cnc3ccc(-c4ccc(Cl)cc4)cc3c21 :: 11800
CN(C)Cc1ccc(-c2ccc3ncc4ccc(=O)n(-c5ccc(C(=O)N6CC7CN(C)CC7C6)cc5)c4c3c2)cc1 (stereo not shown) :: 54
NC(=O)c1ccc(-n2c(=O)ccc3cnc4ccc(-c5ccc(Cl)cc5)cc4c32)cc1 :: 799

Now examine the next entry.
Given the entry O=C(c1ccc(-n2c(=O)ccc3cnc4ccc(-c5ccc(Cl)cc5O)cc4c32)cc1)N1CCOCC1 , report its measured PAMPA Permeability.
1420

----------
# assay_method_text: Microsomal stability (rat)
# Assay type: in vitro ADME
# assay_conditions: rat microsomes
measure: Microsomal Stability (rat) T1/2 (min)
Your answer should be a plain number; it is taken to be in min.

Worked cases, answers included:
Cc1c(C#N)cccc1-n1c(=O)ccc2cnc3ccc(-c4ccc(Cl)cc4)cc3c21 :: 14.5
O=C(c1ccc(-n2c(=O)ccc3cnc4ccc(-c5ccc(Cl)cc5)cc4c32)cc1)N1CCCCC1 :: 1.4
CS(=O)(=O)c1ccc(-n2c(=O)ccc3cnc4ccc(-c5ccc(C=O)cc5)cc4c32)cc1 :: 2.9
Cc1ccc(C#N)cc1-n1c(=O)ccc2cnc3ccc(-c4ccc(Cl)cc4)cc3c21 :: 12.1
Cn1c(=O)n(-c2ccc(N3CCNCC3)c(C#N)c2)c2c3cc(-c4ccc(Cl)cc4)ccc3ncc21 :: 19.4
O=C1NCc2ccc(-n3c(=O)ccc4cnc5ccc(-c6ccc(Cl)cc6)cc5c43)cc21 :: 19.2

Which value of Microsomal Stability (rat) T1/2 has been reported for Cc1cc(C(=O)NCCN2CCN(C)CC2)ccc1-n1c(=O)ccc2cnc3ccc(-c4ccc(Cl)cc4)cc3c21 in the records?
3.8
